What log10 of IC50 was measured for each of the following?
- System: 636577-100-R-J1-PDC complex spheroid viability
- Test details: Anticancer human tumor 636577-100-R-J1-PDC patient-derived endometrial adenocarcinoma cell line growth inhibition [GQUAD]
- Condition description: curve of first compound; second compound 0.316 µM
# values: log10(IC50), units nM

CC1COCCN1c1cc(C2(O)CC3CCC(C2)O3)c2cnn(-c3ccn[nH]3)c2n1 (stereo not given) + Cc1[nH]c2ccc(F)cc2c1-c1nc2c3cccnc3c3ncccc3c2[nH]1 = 1.77
O=c1[nH]cc(F)c(=O)[nH]1 + CN(C)c1ccc(Nc2c3ccc(NC(=O)CCN4CCCC4)cc3nc3cc(NC(=O)CCN4CCCC4)ccc23)cc1 = 3.74

For each entry beneath this line, provide reported log10 of IC50.
1. C#Cc1c(F)ccc2cc(O)cc(-c3ncc4c(N5CC6CCC(C5)N6)nc(OCC56CCCN5CC(F)C6)nc4c3F)c12 (stereo not given) + CN(C)c1ccc(Nc2c3ccc(NC(=O)CCN4CCCC4)cc3nc3cc(NC(=O)CCN4CCCC4)ccc23)cc1
2. COc1cc(C2c3cc4c(cc3C(OC3OC5COC(C)OC5C(O)C3O)C3COC(=O)C23)OCO4)cc(OC)c1O (stereo not given) + CN(C)c1ccc(Nc2c3ccc(NC(=O)CCN4CCCC4)cc3nc3cc(NC(=O)CCN4CCCC4)ccc23)cc1

1: 3.59; 2: 1.67

For each entry beneath this line, provide reported log10 of IC50.
1. COc1ccc([C@@H](O)c2cc(-c3ncnc4cc(N5CCOCC5)ccc34)c(F)cc2Cl)nn1 + CN(C)c1ccc(Nc2c3ccc(NC(=O)CCN4CCCC4)cc3nc3cc(NC(=O)CCN4CCCC4)ccc23)cc1
2. C=CCn1c(=O)c2cnc(Nc3ccc(N4CCN(C)CC4)cc3)nc2n1-c1cccc(C(C)(C)O)n1 + CN(C)c1ccc(Nc2c3ccc(NC(=O)CCN4CCCC4)cc3nc3cc(NC(=O)CCN4CCCC4)ccc23)cc1

[2.67, 2.58]

====

For each record, write down the corresponding viability, T/C.
- Test system: 636577-100-R-J1-PDC complex spheroid viability
- Test details: Anticancer human tumor 636577-100-R-J1-PDC cell line growth inhibition [GQUAD];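 also: viability read after seven days of drug exposure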;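 as to viability, T/C: luminescence signal used as a proxy for viable cells; 100% = DMSO vehicle control wells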
- Condition description: second compound 1 µM; first compound 0.1 µM; stronger effect = lower value

COc1cc(C2c3cc4c(cc3C(OC3OC5COC(C)OC5C(O)C3O)C3COC(=O)C23)OCO4)cc(OC)c1O (centres undefined) + Cc1cnc(CNC(=O)c2c(=O)c3ccc(N4CCCN(C)CC4)nc3n3c2sc2ccccc23)cn1 = 19.1%
CC1COCCN1c1cc(C2(S(C)(=N)=O)CC2)nc(-c2ccnc3[nH]ccc23)n1 (centres undefined) + CN(C)c1ccc(Nc2c3ccc(NC(=O)CCN4CCCC4)cc3nc3cc(NC(=O)CCN4CCCC4)ccc23)cc1 = 80.2%

Give one value of viability, T/C per listed molecule.
1. O=C(NO)c1cnc(N2CCN(S(=O)(=O)c3ccc4ccccc4c3)CC2)nc1 + Cc1cnc(CNC(=O)c2c(=O)c3ccc(N4CCCN(C)CC4)nc3n3c2sc2ccccc23)cn1
2. CC(=O)O[C@H]1C(=O)[C@@]2(C)[C@H]([C@H](OC(=O)c3ccccc3)[C@]3(O)C[C@H](OC(=O)[C@H](O)[C@@H](NC(=O)c4ccccc4)c4ccccc4)C(C)=C1C3(C)C)[C@]1(OC(C)=O)CO[C@@H]1C[C@@H]2O + Cc1cnc(CNC(=O)c2c(=O)c3ccc(N4CCCN(C)CC4)nc3n3c2sc2ccccc23)cn1

1. 16.8%
2. 16.5%

====

- Test system: 636577-100-R-J1-PDC complex spheroid viability
- Test details: Anticancer human tumor 636577-100-R-J1-PDC cell line growth inhibition [GQUAD]; active = viability on the fitted dose curve at most 10% of control; inactive = the rest;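 also: viability read after seven days of drug exposure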
- Condition description: second compound 0.1 µM; first compound 3.16 µM
The reply should name one outcome from active, inactive

Take a look at these entries with their results.
CC1COCCN1c1cc(-c2ccnn2C)c2ccnc(-c3ccn[nH]3)c2n1 (stereo unspecified) + CN(C)c1ccc(Nc2c3ccc(NC(=O)CCN4CCCC4)cc3nc3cc(NC(=O)CCN4CCCC4)ccc23)cc1 = active
CC1COCCN1c1cc(-c2ccnn2C)c2ccnc(-c3ccn[nH]3)c2n1 (stereo unspecified) + Cc1cnc(CNC(=O)c2c(=O)c3ccc(N4CCCN(C)CC4)nc3n3c2sc2ccccc23)cn1 = active
CC1COCCN1c1cc(C2(S(C)(=N)=O)CC2)nc(-c2ccnc3[nH]ccc23)n1 (stereo unspecified) + Cc1[nH]c2ccc(F)cc2c1-c1nc2c3cccnc3c3ncccc3c2[nH]1 = inactive
COc1ncnc(C2CC2)c1-c1ncc2cnn(Cc3ccc(-c4nc(C(F)(F)F)cn4C(C)C)cc3)c2n1 + Cc1[nH]c2ccc(F)cc2c1-c1nc2c3cccnc3c3ncccc3c2[nH]1 = inactive
COc1cccc2c1C(=O)c1c(O)c3c(c(O)c1C2=O)CC(O)(C(=O)CO)CC3OC1CC(N)C(O)C(C)O1 (stereo unspecified) + Cc1cnc(CNC(=O)c2c(=O)c3ccc(N4CCCN(C)CC4)nc3n3c2sc2ccccc23)cn1 = active

Just curious, what result did Cc1cccc(N(C)C(=O)C2C(O)CCN2c2nc(C)cc(C(F)(F)F)c2C#N)c1 (stereo unspecified) + Cc1cnc(CNC(=O)c2c(=O)c3ccc(N4CCCN(C)CC4)nc3n3c2sc2ccccc23)cn1 get here? inactive

Please state the recorded outcome for this compound: CC1COCCN1c1cc(C2(S(C)(=N)=O)CC2)nc(-c2ccnc3[nH]ccc23)n1 (stereo unspecified) + Cc1cnc(CNC(=O)c2c(=O)c3ccc(N4CCCN(C)CC4)nc3n3c2sc2ccccc23)cn1 inactive

Check the results log: what was the call for COc1cc(C2c3cc4c(cc3C(OC3OC5COC(C)OC5C(O)C3O)C3COC(=O)C23)OCO4)cc(OC)c1O (stereo unspecified) + Cc1[nH]c2ccc(F)cc2c1-c1nc2c3cccnc3c3ncccc3c2[nH]1 ? inactive

Recorded call for O=c1[nH]cc(F)c(=O)[nH]1 + CN(C)c1ccc(Nc2c3ccc(NC(=O)CCN4CCCC4)cc3nc3cc(NC(=O)CCN4CCCC4)ccc23)cc1 ? inactive

Recorded test call requested for CC(C)n1c(=O)n(C)c2cnc3cc(F)c(-c4ccc(OCCCN5CCCCC5)nc4)cc3c21 + CN(C)c1ccc(Nc2c3ccc(NC(=O)CCN4CCCC4)cc3nc3cc(NC(=O)CCN4CCCC4)ccc23)cc1 inactive

Hi team, can someone confirm the assay call for CC(C)(O)C1CCC(Nc2ccc3ncc(-c4cccc(C(F)(F)F)c4)n3n2)CC1 (stereo unspecified) + Cc1[nH]c2ccc(F)cc2c1-c1nc2c3cccnc3c3ncccc3c2[nH]1 ? inactive

====

- Tested on: 636577-100-R-J1-PDC complex spheroid viability
- Test details: Anticancer human tumor 636577-100-R-J1-PDC cell line growth inhibition [GQUAD];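 also: viability read after seven days of drug exposure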;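 as to viability, T/C: luminescence signal used as a proxy for viable cells; 100% = DMSO vehicle control wells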
- Condition description: second compound 3.16 µM; first compound 0.1 µM; stronger effect = lower value
Property: viability, T/C (%)
Give bare numbers, in %.

Example entries begin here.
COc1cc(C2c3cc4c(cc3C(OC3OC5COC(C)OC5C(O)C3O)C3COC(=O)C23)OCO4)cc(OC)c1O (stereo not given) + CN(C)c1ccc(Nc2c3ccc(NC(=O)CCN4CCCC4)cc3nc3cc(NC(=O)CCN4CCCC4)ccc23)cc1 = 20.5
COc1cc(C2c3cc4c(cc3C(OC3OC5COC(C)OC5C(O)C3O)C3COC(=O)C23)OCO4)cc(OC)c1O (stereo not given) + Cc1cnc(CNC(=O)c2c(=O)c3ccc(N4CCCN(C)CC4)nc3n3c2sc2ccccc23)cn1 = 16.4
COc1ccc([C@@H](O)c2cc(-c3ncnc4cc(N5CCOCC5)ccc34)c(F)cc2Cl)nn1 + Cc1[nH]c2ccc(F)cc2c1-c1nc2c3cccnc3c3ncccc3c2[nH]1 = 38.4
CC1COCCN1c1cc(C2(S(C)(=N)=O)CC2)nc(-c2ccnc3[nH]ccc23)n1 (stereo not given) + Cc1[nH]c2ccc(F)cc2c1-c1nc2c3cccnc3c3ncccc3c2[nH]1 = 49
O=C(c1cc(Cc2n[nH]c(=O)c3ccccc23)ccc1F)N1CCN(C(=O)C2CC2)CC1 + CN(C)c1ccc(Nc2c3ccc(NC(=O)CCN4CCCC4)cc3nc3cc(NC(=O)CCN4CCCC4)ccc23)cc1 = 40.2
CC1COCCN1c1cc(-c2ccnn2C)c2ccnc(-c3ccn[nH]3)c2n1 (stereo not given) + CN(C)c1ccc(Nc2c3ccc(NC(=O)CCN4CCCC4)cc3nc3cc(NC(=O)CCN4CCCC4)ccc23)cc1 = 24.2
CC(=O)O[C@H]1C(=O)[C@@]2(C)[C@H]([C@H](OC(=O)c3ccccc3)[C@]3(O)C[C@H](OC(=O)[C@H](O)[C@@H](NC(=O)c4ccccc4)c4ccccc4)C(C)=C1C3(C)C)[C@]1(OC(C)=O)CO[C@@H]1C[C@@H]2O + Cc1[nH]c2ccc(F)cc2c1-c1nc2c3cccnc3c3ncccc3c2[nH]1 = 11.7
CC1COCCN1c1cc(C2(O)CC3CCC(C2)O3)c2cnn(-c3ccn[nH]3)c2n1 (stereo not given) + Cc1cnc(CNC(=O)c2c(=O)c3ccc(N4CCCN(C)CC4)nc3n3c2sc2ccccc23)cn1 = 16.7
O=c1[nH]cc(F)c(=O)[nH]1 + Cc1cnc(CNC(=O)c2c(=O)c3ccc(N4CCCN(C)CC4)nc3n3c2sc2ccccc23)cn1 = 19.5

Requested read-out viability, T/C, target or system 636577-100-R-J1-PDC complex spheroid viability, entry C#Cc1c(F)ccc2cc(O)cc(-c3ncc4c(N5CC6CCC(C5)N6)nc(OCC56CCCN5CC(F)C6)nc4c3F)c12 (stereo not given) + CN(C)c1ccc(Nc2c3ccc(NC(=O)CCN4CCCC4)cc3nc3cc(NC(=O)CCN4CCCC4)ccc23)cc1 37.2

Attribution: PubChem BioAssay AID2060504
